Data provenance is the supplement of paper PMC10567573.

B1: CDC34 (parent)
chain: GGYFKARLKFPIDYPYSPPAFRFL

Variants of: B1
run description: protein stability index of a GFP-peptide fusion (GPS, HEK-293T) (PSI 1-6); higher = more stable;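 further: lentivirally expressed fusions sorted by FACS into six bins by GFP to DsRed ratio, PSI derived from sequencing read proportions per bin multiplied by bin number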
experimental parameters: c terminus: a fixed tail appended
Outcome: Satisfied for protein stability index of at least 3; Not satisfied for anything lower.

# mutations, class
rows = [
    ("K9F", "Satisfied"),
    ("L24V", "Satisfied"),
    ("P19D", "Not satisfied"),
    ("P15E", "Not satisfied"),
    ("P18G", "Not satisfied"),
    ("R7M", "Not satisfied"),
    ("Y16W", "Not satisfied"),
    ("Y3I", "Not satisfied"),
    ("L8P", "Not satisfied"),
    ("I12M", "Not satisfied"),
    ("P19T", "Satisfied"),
    ("P15W", "Not satisfied"),
    ("P19A", "Not satisfied"),
    ("P18M", "Not satisfied"),
    ("A6Q", "Not satisfied"),
    ("K5S", "Satisfied"),
    ("Y16H", "Satisfied"),
    ("Y14M", "Not satisfied"),
    ("R7S", "Not satisfied"),
    ("P15D", "Satisfied"),
]
